- measurement.target: RBP4 (Mus musculus)
- Construct: from tissue; host or cells: plasma of male C57BL/6J mice (Japan Charles River)
- procedure.details: Blood RBP4-lowering action in C57BL/6J mouse, plasma RBP4 by ELISA
- Type: in vivo
- test.conditions: 10 mg/kg single oral dose, 24 hr, mean±SD, n=4 or 5
Form field: RBP4 (initial value/control value %) 24 hr later (one value per entry).
Lab book: enter the figure in %, no units written.

Example entries begin here.
compound	result.unit	readout.number
O=C(O)COc1cnc(-c2cc(C(F)(F)F)cc(C(F)(F)F)c2)nc1 [Example 1]	%	61.81
COC(=O)COc1ccc(-c2cc(C(F)(F)F)cc(C(F)(F)F)c2)nc1 [Example 7]	%	71.75
CCOC(=O)COc1cnc(-c2cc(C(F)(F)F)cc(C(F)(F)F)c2)nc1 [Example 6]	%	79.70
O=C(O)CCn1ccc(-c2cc(C(F)(F)F)cc(C(F)(F)F)c2)n1 [Example 3]	%	49.64

Could you now consider this next compound?
Please provide the recorded RBP4 (initial value/control value %) 24 hr later for O=C(O)COc1ccc(-c2cc(C(F)(F)F)cc(C(F)(F)F)c2)nc1 [Example 2] , tested on RBP4 (Mus musculus).
64.87
